Target: T1, Human IL-11 (human, UniProt P20809 22-199); also: test concentration or dose not given here
T1 sequence: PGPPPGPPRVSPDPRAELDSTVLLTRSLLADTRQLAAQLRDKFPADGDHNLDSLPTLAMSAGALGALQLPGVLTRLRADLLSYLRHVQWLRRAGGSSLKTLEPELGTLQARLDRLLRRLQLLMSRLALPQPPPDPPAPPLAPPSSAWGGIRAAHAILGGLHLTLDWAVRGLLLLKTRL
Assay: cell-based or functional assay
PROPERTY_NAME: MMP2 production, Experiment 1 (human atrial fibroblasts + TGFB1) (ng/mL)

>>> experimental_result("YU112-B06 (antibody) QVQLVESGGGVVQPGRSLRLSCAASGFTFSSYGMHWVRQAPGKGLEWVAVISYDGSNKYYADSVKGRFTISRDNSKNTLYLQMNSLRAEDTAVYYCAKIGATDPLDYWGQGTLVTVSSGSASAPKLEEGEFSEARVQSALTQPASVSGSPGQSITISCTGTSSDVGGYNYVSWYQQHPGKAPKLMIYDVSNRPSGVSNRFSGSKSGNTASLTIFGLQAEDEADYYCSSYTSSSSWVFGGGTKLTVL")
49.7
>>> experimental_result("YU100-A11 (antibody) EVQLQQSGGGVVQPGRSLRLSCAASGFTFSSYGMHWVRQAPGKGLEWVAVISYDGSNKYYADSVKGRFTISRDNSKNTLYLQMNSLRAEDTAVYYCAKIGATDPLDYWGQGTLVTVSSGSASAPKLEEGEFSEARVQSALTQPRSVSGSPGQSVTISCTGTSSDVGGYNYVSWYQQHPGKAPKLMIYDVSKRPSGVPDRFSGSKSGNTASLTISGLQAEDEADYYCCSYAGSYTWVFGGGTKLTVL")
51.6
>>> experimental_result("YU100-F07 (antibody) QVQLVESGGGVVQPGRSLRLSCAASGFTFSSYAMHWVRQAPGKGLEWVAVISYDGSNKYYADSVKGRFTISRDNSKNTLYLQMNSLRAEDTAVYYCARIMGYDYGDYDVVDYWGQGTLVTVSSGSASAPKLEEGEFSEARVQSALTQPRSVSVSPGQSVTISCTGTSSDVGGYEYVSWYQQHPGKAPKLMIYDVTKRPSGVPDRFSGSKSGNTASLTISGLQGEDAADYYCCSYAGSYTWVFGGGTTVTVL")
53.1
>>> experimental_result("YU100-G10 (antibody) QVQLVQSGGGVVQPGRSLRLSCAASGFTFSSYGMHWVRQAPGKGLEWVAVISYDGSNKYYADSVKGRFTISRDNSKNTLYLQMNSLRAEDTAVYYCAKIGATDPLDYWGQGTLVTVSSGSASAPKLEEGEFSEARVQSALTQPASVSGSLGQSITMSCTGTRRDVGGYDFVSWYQQYPGKAPKLIIYDVSNRPSGVSNRFTGSKSGNTASLTISGLQAEDEADYYCCSYAGTYTWVFGGGTKVTVL")
54
>>> experimental_result("YU112-C05 (antibody) EVQLVESGGGVVQPGRSLRLSCAASGFTFSSYAMHWVRQAPGKGLEWVAVISYDGSNKYYADSVKGRFTISRDNSKNTLYLQMNSLRAEDTAVYYCARIMGYDYGDYDVVDYWGQGTLVTVSSGSASAPKLEEGEFSEARVQSALTQPRSVSGSPGQSVTISCTGTISDVGGYNYVSWYQQHPGKAPKLMIYDVTKRPSGVPDRFSGSKSGNTASLTISGLQAEDEAGYYCSSYAGSYTWVFGGGTELTVL")
55.2
